Would you kindly list viability, T/C for each of these compounds?
- System: LG0703-F948-PDC complex spheroid viability;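 further: spheroids exposed to agents for 7 days; 100% = DMSO vehicle wells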
- procedure_summary: Anticancer human tumor LG0703-F948-PDC patient-derived lung adenocarcinoma cell line growth inhibition [RAS]
- experimental_conditions: second compound 0.1 µM; first compound 0.1 µM; stronger effect = lower value

Solved cases (6 shown):
compound	viability, T/C
CC(C)n1nc(-c2ccc3oc(N)nc3c2)c2c(N)ncnc21 + C=CC(=O)N1CCN(c2nc(OCC3CCCN3C)nc3c(F)c(-c4nc(N)cc(C)c4C(F)(F)F)c(Cl)cc23)C(C)C1	8.14%
CCN1CCN(Cc2ccc(Nc3ncc(F)c(-c4cc(F)c5nc(C)n(C(C)C)c5c4)n3)nc2)CC1 + C#Cc1c(F)ccc2cc(O)cc(-c3ncc4c(N5CC6CCC(C5)N6)nc(OCC56CCCN5CC(F)C6)nc4c3F)c12	90.5%
CC(C)NCC(C(=O)N1CCN(c2ncnc3c2C(C)CC3O)CC1)c1ccc(Cl)cc1 (configuration not stated) + C=CC(=O)N1CCN(c2nc(OCC3CCCN3C)nc3c(F)c(-c4nc(N)cc(C)c4C(F)(F)F)c(Cl)cc23)C(C)C1	74.6%
CC(C)NCC(C(=O)N1CCN(c2ncnc3c2C(C)CC3O)CC1)c1ccc(Cl)cc1 (configuration not stated) + C#Cc1c(F)ccc2cc(O)cc(-c3ncc4c(N5CC6CCC(C5)N6)nc(OCC56CCCN5CC(F)C6)nc4c3F)c12	68.2%
O=C(c1ccc(F)c(F)c1Nc1ccc(I)cc1F)N1CC(O)([C@@H]2CCCCN2)C1 + C#Cc1c(F)ccc2cc(O)cc(-c3ncc4c(N5CC6CCC(C5)N6)nc(OCC56CCCN5CC(F)C6)nc4c3F)c12	39.4%
CC(Nc1ccc2c(c1)OCCn1cc(N3C(=O)OCC3C(F)F)nc1-2)C(N)=O (configuration not stated) + C#Cc1c(F)ccc2cc(O)cc(-c3ncc4c(N5CC6CCC(C5)N6)nc(OCC56CCCN5CC(F)C6)nc4c3F)c12	81%

Field: next compound
Entry Nc1ccn(C2OC(CO)C(O)C2(F)F)c(=O)n1 (configuration not stated) + C#Cc1c(F)ccc2cc(O)cc(-c3ncc4c(N5CC6CCC(C5)N6)nc(OCC56CCCN5CC(F)C6)nc4c3F)c12 : reported viability, T/C = ?
27.4%
